Each recorded value in this set is attributed to patent US20250027068.

target: pooled human IgG (human IgG1,2,3 and 4)
Property name: Enzyme Activity Endpoint Assay (purified): scIgG (ng/µL)

Protein | Unit of measurement | Quantitative result
PRT-359 (protein) MSQTEDSESLQRLRDIEDFQAEKKDQNVVYTKWLDGVDVKDHDFRKIVDGNIAYYATPLLNGRGLYDINKDFNRDSDKCAAAVAANMFHYWLDRNRDNVDRFLRQNPEKHGIIELPDGQLKLSDFLNTYESDDGYRDKSKLFDFISENFNGPVWTDKLLDNYINGYAYNYKYGRTIEDPTKNTSKINFFKEVFNEKILTNNHSIRNQNELSVLLSEALYTGKAIGLSYGPAGLRHSLGHIISVWGADLDADGNVVAIYVTDSDDKKLTIGDERVGLKRYKISTDDEGRLRLTAYEETHNTGGQVRGLWTLDTGKQAWADYFDKTEQTGTDQAEQ | ng/µL | 677
